# System: MDA-MB-231 breast
# TEST METHOD NOTES: NCI tumour cell line growth inhibition, 48 h; in the data active means GI50 below about 0.43 µM; inactive means the rest
Your reply should match one of these outcome classes. 1 for active, 0 for inactive

Some solved cases for reference:
{"MOLECULE": "Cc1cc(Cl)n2c(nc3ccccc32)c1C#N", "ASSIGNED CLASS": 0}
{"MOLECULE": "CC(C)(O)Cn1c(=O)c(Oc2ccc(F)cc2F)cc2cnc(NC3CCOCC3)nc21", "ASSIGNED CLASS": 0}
{"MOLECULE": "Cc1nc2c(cnn2-c2ccnc3c(C(F)(F)F)cccc23)c(=O)o1", "ASSIGNED CLASS": 0}
{"MOLECULE": "CCN(CC)CCCCCCCCNc1c2ccc(Cl)cc2nc2ccc(OC)cc12", "ASSIGNED CLASS": 0}

Task: Short answer needed: outcome of this test for C=C1C(=O)O[C@@H]2[C@@H]3O[C@@](C)(CC/C=C(\C)CCC[C@@H]2C)[C@H](O)C[C@@H]13 ?
Output: 0

Task: Short answer needed: outcome of this test for O=C(CCCCCCc1nc2ccc(Br)cc2[nH]1)NO ?
Output: 0

Task: Short answer needed: outcome of this test for CCN1CCC(C(=O)Nc2n[nH]c3nnc(-c4cccc(F)c4F)cc23)CC1 ?
Output: 0

Task: Short answer needed: outcome of this test for CCN1CCN(C(=O)[C@]23CC[C@@H](C)[C@H](C)[C@@H]2C2=CC[C@@H]4[C@@]5(C)C/C(=C/c6cccnc6)C(=O)C(C)(C)[C@@H]5CC[C@@]4(C)[C@]2(C)CC3)CC1 ?
Output: 0

Task: Short answer needed: outcome of this test for COc1cc(-c2cc(-c3ccc(N(C)C)cc3)nc(N3CCC(O)CC3)c2C#N)cc(OC)c1OC ?
Output: 1

Task: Short answer needed: outcome of this test for Cc1ccc(CCC(=O)Nc2ncc(Cc3cc(Cl)ccc3Cl)s2)o1 ?
Output: 1

Task: Short answer needed: outcome of this test for N#Cc1c(N)nn(C(=O)c2ccc(NC(=O)c3ccccn3)cc2)c1-c1ccc(Cl)cc1 ?
Output: 0

Task: Short answer needed: outcome of this test for C=C1C(=O)OC(CCCCCCCC)C1C(=O)O (centres undefined) ?
Output: 0

Task: Short answer needed: outcome of this test for COc1ccccc1/C=C1\COc2ccc(O)c(O)c2C1=O ?
Output: 0

Task: Short answer needed: outcome of this test for CCOC(=O)c1cc2c(n1Cc1cccc(OC)c1)-c1oncc1CC2 ?
Output: 0

Task: Short answer needed: outcome of this test for CC(C)Oc1cc(OCC(=O)O)cc(C(=O)N(CCC(N)=O)C(=O)Nc2ccc(C(=O)O)cc2OC(C)C)c1 ?
Output: 0

Task: Short answer needed: outcome of this test for Cc1cc2c(-c3nc4ccccc4[nH]3)c(O)c(O)cc2c(O)c1-c1c(C)cc2c(-c3nc4ccccc4[nH]3)c(O)c(O)cc2c1O ?
Output: 1

---

# Tested on: UO-31 renal
# TEST METHOD NOTES: NCI tumour cell line growth inhibition, 48 h
EXPERIMENTAL READOUT: TGI

A selection of reference data follows.
{"COMPOUND": "C=C1C(=O)OC(CCCCCCCC)C1C(=O)O (stereo unspecified)", "TGI": "25.6 µM"}
{"COMPOUND": "O=C(NCC1Nc2ccncc2S(=O)(=O)N1)c1ccc(Br)cc1 (stereo unspecified)", "TGI": "> 100 µM"}
{"COMPOUND": "CCN(CC)CCCCCCCCNc1c2ccc(Cl)cc2nc2ccc(OC)cc12", "TGI": "4.34 µM"}

Task: TGI for COc1c(-c2cc(C)c(Cl)c(=O)[nH]2)c(O)c(OC)c2occc12 ?
Output: > 100 µM

Task: TGI for CC(=O)OC1COC(N2C(=O)C(=O)c3c(C)cc(Cl)nc32)C(OC(C)=O)C1OC(C)=O (stereo unspecified) ?
Output: > 100 µM

Task: TGI for Nc1ccc2c(c1)C1Oc3ccccc3CC1CO2 (stereo unspecified) ?
Output: > 100 µM
